B1: PhoQ; a variant is named by its letters at X, in order, P23837 (parent)
chain: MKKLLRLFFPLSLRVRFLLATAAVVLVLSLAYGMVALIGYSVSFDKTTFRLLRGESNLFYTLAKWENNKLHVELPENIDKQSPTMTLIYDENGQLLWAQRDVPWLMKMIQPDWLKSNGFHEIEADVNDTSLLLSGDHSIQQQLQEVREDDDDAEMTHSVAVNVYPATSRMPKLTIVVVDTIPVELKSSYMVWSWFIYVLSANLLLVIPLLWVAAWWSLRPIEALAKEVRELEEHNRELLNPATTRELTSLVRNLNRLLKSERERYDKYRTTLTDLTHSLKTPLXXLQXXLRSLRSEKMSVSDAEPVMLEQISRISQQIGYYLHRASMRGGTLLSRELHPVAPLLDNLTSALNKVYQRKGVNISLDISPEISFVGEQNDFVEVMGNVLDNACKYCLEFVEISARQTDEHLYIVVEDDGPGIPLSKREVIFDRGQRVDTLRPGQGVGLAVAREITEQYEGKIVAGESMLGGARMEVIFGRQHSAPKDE

- Variants of: B1
- TEST METHOD NOTES: enrichment ratio after two sorts for PhoP signalling (ratio (wild type AVST 3.29)); higher = more functional
- CONDITION LABEL: with PhoP (E. coli)
Whole data set: some 140,000 sequences, median “enrichment ratio after two sorts for PhoP signalling” near 0, cut for the highest 2% near 11. The list comes from a sample in which the highest values are over-represented; it also holds close analogues and randomly drawn sequences.
MEASURED QUANTITY: enrichment ratio

[Q] Need enrichment ratio, item SGMD
[A] ≤ 0.25

[Q] Which measured enrichment ratio value corresponds to DRLW ?
[A] ≤ 0.25

[Q] Which enrichment ratio reading was recorded for the variant SGCI ?
[A] 10.3

[Q] Param item = SGNL ; retrieve measured enrichment ratio.
[A] 0.304

[Q] Suppose we examine the variant VRKH ; what enrichment ratio value has been reported?
[A] ≤ 0.25

[Q] Please report the recorded enrichment ratio for NIGG .
[A] ≤ 0.25

[Q] Could you share which enrichment ratio value was measured for SERL ?
[A] ≤ 0.25
